Test system: UO-31 renal
Assay: NCI-60 one-dose screen, 48 h
Conditions: 10 µM
Experimental: Growth inhibition of the UO-31 human tumor cell line is measured as a screen for anti-cancer activity. Cells are grown in 96 well plates and exposed to the test compound for 48 hours. Compounds are tested at a single concentration, which is 10^-5 M for most compounds. The reported endpoint is percent growth (GI% or GIPRCNT), where numbers from 0 - 100% represent growth inhibition, and numbers from -100% - 0 represent cell death. For example, a value of 40 represents 60% growth inhibition. […]
This is part of a sample that, as a whole, favours compounds with a hit. Of some 83,000 tested, about 20% had one in any assay. Activity calls are given as the source filed them. How the source made its calls: active means growth percent below 10; inactive means the rest.
Please state which outcome applies, choosing from TRUE for active, FALSE for inactive

Below, 2 molecules whose answers are already recorded.
CC(=O)O[C@@H]1[C@@H]2O[C@H]2[C@@](C)(O)C(=O)[C@@H](C)C/C=C/[C@H]2[C@@H]3O[C@]3(C)[C@@H](C)C3[C@H](Cc4ccccc4)NC(=O)[C@@]312 (some centres undefined)
FALSE
CN1C(=O)[C@]23SSC1(C)C(=O)N2[C@H]1Nc2ccccc2C1([C@@]12c4ccccc4N[C@@H]1N1C(=O)C4(C)SS[C@]1(C(=O)N4C)[C@H]2O)[C@@H]3O (some centres undefined)
TRUE

stdin: Just curious, what result did NC1CCc2cc(O)c(O)cc2C1 (centres undefined) get here?
stdout: FALSE

stdin: Just curious, what result did C=C1[C@@H](C)C2[C@H](Cc3ccccc3)NC(=O)[C@]23[C@H](OC(C)=O)/C=C/[C@@](C)(O)C(=O)[C@@H](C)C/C=C/[C@H]3[C@@H]1O (some centres undefined) get here?
stdout: TRUE
